# Tested on: HeLa
# PROTOCOL_NOTES: Cytotoxicity against human HeLa cells after 48 hrs by MTT assay
# Assay type: functional, cell-based
pIC50: −log10 of the molar value.
// label = 1 (yes) if pIC50 is not less than 6, otherwise 0 (no)

[
  {
    "MOLECULE": "COc1cc(/C=C2\\CC/C(=C\\c3ccc(OCCN(C)C)c(OC)c3)C2=O)ccc1OCCN(C)C",
    "ASSIGNED_CLASS": "1 (yes)"
  },
  {
    "MOLECULE": "CN(C)CCCCOc1ccc(/C=C2\\CC/C(=C\\c3ccc(OCCCCN(C)C)cc3)C2=O)cc1",
    "ASSIGNED_CLASS": "0 (no)"
  },
  {
    "MOLECULE": "COc1cccc2c1C(=O)c1c(O)c3c(c(O)c1C2=O)C[C@@](O)(C(=O)CO)C[C@@H]3O[C@H]1C[C@H](N)[C@H](O)[C@H](C)O1 [DOXORUBICIN]",
    "ASSIGNED_CLASS": "0 (no)"
  },
  {
    "MOLECULE": "COc1cc(/C=C2\\CC/C(=C\\c3ccc(OCCCN(C)C)c(OC)c3)C2=O)ccc1OCCCN(C)C",
    "ASSIGNED_CLASS": "1 (yes)"
  },
  {
    "MOLECULE": "COc1cc(/C=C2\\CC/C(=C\\c3ccc(OCCCCN4CCCCC4)c(OC)c3)C2=O)ccc1OCCCCN1CCCCC1",
    "ASSIGNED_CLASS": "1 (yes)"
  },
  {
    "MOLECULE": "O=C1/C(=C/c2ccc(OCCCCN3CCCCC3)cc2)CCC/C1=C\\c1ccc(OCCCCN2CCCCC2)cc1",
    "ASSIGNED_CLASS": "0 (no)"
  },
  {
    "MOLECULE": "COc1cc(/C=C2\\CCC/C(=C\\c3ccc(OCCCN4CCCCC4)c(OC)c3)C2=O)ccc1OCCCN1CCCCC1",
    "ASSIGNED_CLASS": "0 (no)"
  },
  {
    "MOLECULE": "COc1cc(/C=C2\\CC/C(=C\\c3ccc(OCCN4CCCCC4)c(OC)c3)C2=O)ccc1OCCN1CCCCC1",
    "ASSIGNED_CLASS": "1 (yes)"
  },
  {
    "MOLECULE": "COc1cc(/C=C2\\CC/C(=C\\c3ccc(OCCCn4ccnc4C)c(OC)c3)C2=O)ccc1OCCCn1ccnc1C",
    "ASSIGNED_CLASS": "0 (no)"
  }
]

Ref: ChEMBL document CHEMBL2311414
